tested on: West Nile virus; test: Inhibition of West Nile virus NS2B-NS3 protease expressed in Escherichia coli BL 21 (DE3) using Abz-Gly-Leu-Lys-Arg-Gly-Gly-3-(NO2)Tyr as substrate at 50 uM after 15 mins
Rule: inhibition of 50% or more gives yes (1); anything lower gives no (0).

smiles.representation: CCCC[C@H](NC(=O)[C@H](CCCCN)NC(=O)[C@H](CCCNC(=N)N)NC(=O)c1ccc(/C=C2\SC(=S)N(CCC)C2=O)cc1)C(N)=O
cat: yes (1)

Could you tell me if the measured inhibition of CCCC[C@@H](NC(=O)[C@@H](CCCCN)NC(=O)[C@@H](CCCNC(=N)N)NC(=O)c1ccc(/C=C2\SC(=O)N(Cc3ccccc3)C2=O)cc1)C(N)=O reaches 50% or more?
no (0)

inhibition >= 50% for CCCC[C@H](NC(=O)[C@H](CCCCN)NC(=O)[C@H](CCCNC(=N)N)NC(=O)c1ccc(/C=C2\SC(=O)N(Cc3ccc(OC)cc3)C2=O)cc1)C(N)=O ?
no (0)

###

system: West Nile virus; assay: Inhibition of West Nile virus NS2B-NS3 protease expressed in Escherichia coli BL 21 (DE3) using Abz-Gly-Leu-Lys-Arg-Gly-Gly-3-(NO2)Tyr as substrate at 50 uM after 15 mins
inhibition listing for selected compounds.
Record the value in %, omitting the unit from your answer.

Request body: readout inhibition, system West Nile virus, query CCCC[C@H](NC(=O)[C@H](CCCCN)NC(=O)[C@H](CCCNC(=N)N)NC(=O)c1ccc(/C=C2\SC(=O)N(CCc3ccccc3)C2=O)cc1)C(N)=O . Return the value.
57.8

Provide value of inhibition for this record tested with West Nile virus: C=CCN1C(=O)/C(=C/c2ccc(C(=O)N[C@@H](CCCNC(=N)N)C(=O)N[C@@H](CCCCN)C(=O)N[C@@H](CCCC)C(N)=O)cc2)SC1=S
54.6

Record CCCC[C@H](NC(=O)[C@H](CCCCN)NC(=O)[C@H](CCCNC(=N)N)NC(=O)c1ccc(/C=C2\SC(=S)N(c3ccc(F)cc3)C2=O)cc1)C(N)=O : what is its inhibition with West Nile virus?
35.5

Form field - read-out: inhibition; system: West Nile virus; submitted item: CCCC[C@H](NC(=O)[C@H](CCCCN)NC(=O)[C@H](CCCNC(=N)N)NC(=O)c1ccc(/C=C2\SC(=S)NC2=O)cc1)C(N)=O
48.7

State its inhibition on West Nile virus: CCCC[C@H](NC(=O)[C@H](CCCCN)NC(=O)[C@H](CCCNC(=N)N)NC(=O)c1ccc(/C=C2\SC(=S)N(CC3CCCO3)C2=O)cc1)C(N)=O (stereo partly drawn)
53.4

###

tested on: Huh-7; test: Cytotoxicity against human HuH7 cells at <50 uM after 48 hrs by firefly reporter assay; assay type: cell-based; conditions: huh-7, 48 h
measured.property: Activity

smiles.representation: CCCC[C@H](NC(=O)[C@H](CCCCN)NC(=O)[C@H](CCCNC(=N)N)NC(=O)c1ccc(/C=C2\SC(=S)N(C)C2=O)cc1)C(N)=O
measured.property: Activity
result: Non-toxic
//
smiles.representation: CCCC[C@H](NC(=O)[C@H](CCCCN)NC(=O)[C@H](CCCNC(=N)N)NC(=O)c1ccc(/C=C2\SC(=S)NC2=O)cc1)C(N)=O
measured.property: Activity
result: Non-toxic
//
smiles.representation: CCCC[C@H](NC(=O)[C@H](CCCCN)NC(=O)[C@H](CCCNC(=N)N)NC(=O)/C=C1\SC(=S)N(Cc2ccc(OC)cc2)C1=O)C(N)=O
measured.property: Activity
result: Non-toxic
